Just for reference, paper PMC12077508 is where these values come from.

Target: OR2W1 (Homo sapiens)
Sequence (Q9Y3N9 1-320): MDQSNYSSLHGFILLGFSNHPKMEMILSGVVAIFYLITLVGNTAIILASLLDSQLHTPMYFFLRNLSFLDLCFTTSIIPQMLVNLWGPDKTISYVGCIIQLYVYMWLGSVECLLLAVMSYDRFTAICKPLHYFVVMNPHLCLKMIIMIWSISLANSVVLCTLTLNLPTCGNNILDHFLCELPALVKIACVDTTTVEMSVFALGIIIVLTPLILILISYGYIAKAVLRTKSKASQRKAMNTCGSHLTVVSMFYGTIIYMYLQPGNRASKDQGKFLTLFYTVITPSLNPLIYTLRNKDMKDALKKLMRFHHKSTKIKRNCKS
Assay: cAMPr fluorescence imaging in transfected HEK293T cells
endpoint.label: EC50
Please give the number followed by its unit.

>  <molecule>
OCCc1ccccc1

>  <test.value>
1500 µM

$$$$

# next molecule below
Tell me its EC50 given CCCCCOC(C)=O [pentyl acetate] as the entry.
44 µM
